So I've got a bunch of molecules here, and I need their inhibition values.
- study-target: ALK tyrosine kinase receptor (Homo sapiens)
- assay-setup: at 0.1 µM
- Description: GSK_PKIS: ALK mean inhibition at 0.1 uM [Nanosyn]
Answers are plain numbers, in %.

>  <smiles-string>
NC(=O)c1sc(-n2cnc3ccc(C(F)(F)F)cc32)cc1OCc1ccccc1Br

>  <study-target>
ALK tyrosine kinase receptor (Homo sapiens)

>  <inhibition (%)>
1.39

$$$$
>  <smiles-string>
O=S(=O)(CCNCc1ccc(-c2ccc3ncnc(Nc4ccc(OCc5cccc(F)c5)c(Cl)c4)c3c2)o1)c1ccccc1

>  <study-target>
ALK tyrosine kinase receptor (Homo sapiens)

>  <inhibition (%)>
4.32

$$$$

Batch lookup, inhibition per entry.
1. COc1cc2c(cc1Nc1nc(Nc3ccsc3C(N)=O)c3cc[nH]c3n1)N(C(=O)CN(C)C)CCC2(C)C
2. c1cc(-c2cnn3nc(N4CCOCC4)ccc23)nc(NC2CC2)n1
3. [O-][S+]1CCN(Cc2ccc(-c3ccc4ncnc(Nc5ccc(OCc6cccc(F)c6)c(Cl)c5)c4c3)o2)CC1
4. COc1cccc(-n2ncc3c(N/N=C/c4ccc(F)cc4)ncnc32)c1
5. CCn1c(-c2nonc2N)nc2c(C#CC(C)(C)O)nc(OC[C@H](N)c3ccccc3)cc21
6. CC(=O)NCc1cccc(C#Cc2cncnc2Nc2ccc(OCc3cccc(F)c3)c(Cl)c2)c1

95.7
2.05
3.34
2.82
5.79
-0.48

Form field: reported inhibition of `CCCN1CCC(c2ccc(Nc3nc(Nc4cc(F)ccc4C(N)=O)c4cc[nH]c4n3)c(OC)c2)CC1`
97.5

* * *

- study-target: Mast/stem cell growth factor receptor Kit (Homo sapiens);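 note: values given as mean inhibition of KIT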
- assay-setup: at 1 µM
Values of inhibition greater than or equal to 20% map to MET; values below map to NOT MET.

>  <smiles-string>
O=C(Nc1n[nH]c2cc(-c3ccc(F)cc3)ccc12)C1CC1

>  <class-label>
NOT MET

$$$$

Determine whether this compound has inhibition no lower than 20%: `CC(=O)NCc1cccc(C#Cc2cncnc2Nc2ccc(OCc3cccc(F)c3)c(Cl)c2)c1`
NOT MET

Also `CCCN1CCC(c2ccc(Nc3nc(Nc4cc(F)ccc4C(N)=O)c4cc[nH]c4n3)c(OC)c2)CC1` ?
MET

Also `COc1cc(Nc2nccc(Nc3ccc4c(C)n[nH]c4c3)n2)cc(OC)c1OC` ?
MET

Also `O=S(=O)(CCNCc1ccc(-c2ccc3ncnc(Nc4ccc(OCc5cccc(F)c5)c(Cl)c4)c3c2)o1)c1ccccc1` ?
NOT MET

Also `CCN(CC)S(=O)(=O)c1ccc(OC)c(Nc2ncc(-c3ccccc3)o2)c1` ?
MET

Also `CC(C)COC(=O)c1ccc2c(c1)/C(=C/Nc1ccc(S(N)(=O)=O)cc1)C(=O)N2` ?
MET

Also `COc1cc(/C=N/Nc2ncnc3[nH]ncc23)ccc1O` ?
MET

Also `COC(=O)Nc1nc2ccc(S(=O)(=O)c3ccc(NC(=O)Nc4cc(C(F)(F)F)ccc4F)cc3)cc2[nH]1` ?
NOT MET

* * *

So I've got a bunch of molecules here, and I need their inhibition values.
- study-target: Tyrosine-protein kinase HCK (Homo sapiens) (UniProt P08631)
- Sequence (P08631 2-526 limits assumed): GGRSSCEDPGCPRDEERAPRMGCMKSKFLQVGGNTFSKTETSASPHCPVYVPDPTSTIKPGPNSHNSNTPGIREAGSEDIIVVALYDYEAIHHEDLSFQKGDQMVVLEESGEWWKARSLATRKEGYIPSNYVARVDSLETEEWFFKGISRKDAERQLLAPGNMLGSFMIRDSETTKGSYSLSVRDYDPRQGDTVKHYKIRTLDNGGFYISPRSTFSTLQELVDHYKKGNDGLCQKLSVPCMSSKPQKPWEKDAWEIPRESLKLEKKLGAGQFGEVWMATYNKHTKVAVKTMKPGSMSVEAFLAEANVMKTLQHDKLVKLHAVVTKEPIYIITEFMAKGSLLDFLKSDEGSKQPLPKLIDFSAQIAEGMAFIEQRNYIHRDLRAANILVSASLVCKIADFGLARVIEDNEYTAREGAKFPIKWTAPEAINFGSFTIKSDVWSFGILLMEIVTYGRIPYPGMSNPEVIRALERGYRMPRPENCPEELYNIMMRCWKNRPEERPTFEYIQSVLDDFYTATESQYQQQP
- assay-setup: at 1 µM
One number for each entry, in %.

Completed entries (count: 4):
>  <smiles-string>
CN1CCC(n2cnc(-c3ccc(F)cc3)c2-c2ccnc(N)n2)CC1

>  <study-target>
Tyrosine-protein kinase HCK (Homo sapiens) (UniProt P08631)

>  <inhibition / %>
7.9

$$$$
>  <smiles-string>
CNC(=O)c1cccc(C#Cc2cncnc2Nc2ccc(OCc3cccc(F)c3)c(Cl)c2)c1

>  <study-target>
Tyrosine-protein kinase HCK (Homo sapiens) (UniProt P08631)

>  <inhibition / %>
2.54

$$$$
>  <smiles-string>
COc1ccc(CNC(=O)c2ccc(-c3cc(-c4nnc(C)o4)ccc3C)cc2)cc1

>  <study-target>
Tyrosine-protein kinase HCK (Homo sapiens) (UniProt P08631)

>  <inhibition / %>
4.62

$$$$
>  <smiles-string>
c1cc(-c2cnn3nc(N4CCOCC4)ccc23)nc(NC2CC2)n1

>  <study-target>
Tyrosine-protein kinase HCK (Homo sapiens) (UniProt P08631);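 note: values are averaged percent inhibition of HCK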

>  <inhibition / %>
11.7

$$$$

Batch lookup, inhibition per entry.
1. COc1ccc2c(-c3ccnc(Nc4cccc(OC(F)(F)F)c4)n3)cnn2n1
2. CCn1c(-c2nonc2N)nc2cnc(Oc3cccc(NC(=O)c4ccc(N(C)C)cc4)c3)cc21
3. CCN(CC)S(=O)(=O)c1ccc(OC)c(Nc2ncc(-c3ccccc3)o2)c1

1: 11.3; 2: 4.03; 3: 28.1

Batch lookup, inhibition per entry.
1. Cc1cccc(Nc2ncc(-c3ccccc3)o2)c1
2. CC(C)COC(=O)c1ccc2c(c1)/C(=C/Nc1ccc(S(N)(=O)=O)cc1)C(=O)N2
3. CCNC(=O)O[C@H]1CN[C@H](C#Cc2cc3ncnc(Nc4ccc(OCc5cccc(F)c5)c(Cl)c4)c3s2)C1

1. 10.2
2. 38.5
3. 5.6

* * *

- study-target: Fibroblast growth factor receptor 3 (Homo sapiens) (UniProt P22607);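 note: each value is a mean percent inhibition of FGFR3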
- Sequence (P22607 23-806 limits assumed): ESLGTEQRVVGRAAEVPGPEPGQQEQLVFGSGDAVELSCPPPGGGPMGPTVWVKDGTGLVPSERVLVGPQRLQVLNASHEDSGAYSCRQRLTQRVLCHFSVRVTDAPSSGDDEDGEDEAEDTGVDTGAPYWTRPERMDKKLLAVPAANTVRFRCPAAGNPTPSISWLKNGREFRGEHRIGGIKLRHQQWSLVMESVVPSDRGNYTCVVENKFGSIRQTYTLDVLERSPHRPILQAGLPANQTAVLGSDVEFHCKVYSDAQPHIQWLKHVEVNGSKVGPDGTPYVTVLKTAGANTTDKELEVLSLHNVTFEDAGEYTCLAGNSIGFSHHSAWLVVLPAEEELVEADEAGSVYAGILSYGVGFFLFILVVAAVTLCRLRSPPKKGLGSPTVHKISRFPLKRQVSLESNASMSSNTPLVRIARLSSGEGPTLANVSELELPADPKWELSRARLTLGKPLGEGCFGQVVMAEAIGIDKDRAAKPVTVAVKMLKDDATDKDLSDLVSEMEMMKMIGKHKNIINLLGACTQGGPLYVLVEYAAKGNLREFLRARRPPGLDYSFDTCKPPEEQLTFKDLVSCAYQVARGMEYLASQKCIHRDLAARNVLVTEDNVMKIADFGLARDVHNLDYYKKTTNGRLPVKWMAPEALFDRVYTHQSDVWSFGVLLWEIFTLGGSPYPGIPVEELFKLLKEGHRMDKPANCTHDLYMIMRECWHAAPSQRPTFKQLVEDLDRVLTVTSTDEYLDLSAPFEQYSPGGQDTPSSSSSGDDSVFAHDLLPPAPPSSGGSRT
- assay-setup: at 0.1 µM
attribute-measured: inhibition (%)
Numbers only, in %.

>  <compound>
COc1cc2c(cc1Nc1nc(Nc3ccsc3C(N)=O)c3cc[nH]c3n1)N(C(=O)CN(C)C)CCC2(C)C

>  <attribute-measured>
inhibition

>  <result-value>
9.36

$$$$
>  <compound>
CS(=O)(=O)CCNCc1coc(-c2ccc3ncnc(Nc4ccc(OCc5ccccc5)cc4)c3c2)c1

>  <attribute-measured>
inhibition

>  <result-value>
5.11

$$$$
>  <compound>
[O-][S+]1CCN(Cc2ccc(-c3ccc4ncnc(Nc5ccc(OCc6cccc(F)c6)c(Cl)c5)c4c3)o2)CC1

>  <attribute-measured>
inhibition

>  <result-value>
8.06

$$$$
>  <compound>
COC(=O)c1sc(-n2cnc3cc(OC)c(OC)cc32)cc1OCc1ccccc1C(F)(F)F

>  <attribute-measured>
inhibition

>  <result-value>
6.13

$$$$
>  <compound>
CCCN1CCC(c2ccc(Nc3nc(Nc4cc(F)ccc4C(N)=O)c4cc[nH]c4n3)c(OC)c2)CC1

>  <attribute-measured>
inhibition

>  <result-value>
3.99

$$$$
>  <compound>
COc1cccc(-c2c[nH]c3c(N/N=C/c4ccncc4)ncnc23)c1

>  <attribute-measured>
inhibition

>  <result-value>
4.63

$$$$
>  <compound>
Cc1cccc2c1NC(=O)/C2=N\Nc1ccc(S(N)(=O)=O)cc1

>  <attribute-measured>
inhibition

>  <result-value>
3.97

$$$$
>  <compound>
FC(F)(F)c1cccc(-c2nn3ncccc3c2-c2ccnc(Nc3ccc4c(c3)OCCO4)n2)c1

>  <attribute-measured>
inhibition

>  <result-value>
4.74

$$$$
>  <compound>
Nc1ncc(-c2cccc(S(N)(=O)=O)c2)c2scc(-c3ccc(F)c(Cl)c3)c12

>  <attribute-measured>
inhibition

>  <result-value>
6.12

$$$$
>  <compound>
CCc1nn2ncccc2c1-c1ccnc(NC2CC2)n1

>  <attribute-measured>
inhibition

>  <result-value>
6.71

$$$$

Batch lookup, inhibition per entry.
1. CN1CCC(n2cnc(-c3ccc(F)cc3)c2-c2ccnc(N)n2)CC1
2. CC1=C(C(=O)Nc2cc(Cl)c3[nH]ncc3c2)C(c2ccc(C(F)(F)F)cc2)CC(=O)N1 (centres undefined)
3. Fc1ccc(-c2nn3ccccc3c2-c2ccncc2)cc1
4. CCn1cc(-c2ccnc3[nH]ccc23)c(-c2cccc(NC(=O)Nc3ccc(OCc4ccccc4)cc3)c2)n1

1: 3.51; 2: 9.2; 3: 5.68; 4: -0.88

* * *

- study-target: MAP kinase-activated protein kinase 5 (Homo sapiens) (UniProt Q8IW41);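 note: mean inhibition of PRAK measured in the GSK PKIS screen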
- Sequence (Q8IW41 whole entry): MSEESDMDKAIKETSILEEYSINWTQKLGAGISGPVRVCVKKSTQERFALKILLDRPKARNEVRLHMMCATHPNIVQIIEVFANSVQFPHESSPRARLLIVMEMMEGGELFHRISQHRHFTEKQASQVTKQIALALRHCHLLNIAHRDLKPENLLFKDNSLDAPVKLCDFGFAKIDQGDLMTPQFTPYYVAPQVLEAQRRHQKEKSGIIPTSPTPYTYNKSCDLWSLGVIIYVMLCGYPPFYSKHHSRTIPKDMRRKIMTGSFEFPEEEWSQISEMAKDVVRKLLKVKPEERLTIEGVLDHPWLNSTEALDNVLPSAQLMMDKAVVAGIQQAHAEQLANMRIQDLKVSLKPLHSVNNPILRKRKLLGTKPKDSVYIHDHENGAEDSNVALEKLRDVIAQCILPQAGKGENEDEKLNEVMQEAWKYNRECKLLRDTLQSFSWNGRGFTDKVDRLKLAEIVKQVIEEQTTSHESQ
- assay-setup: at 1 µM
attribute-measured: inhibition (%)
Give bare numbers, in %.

Completed entries (count: 8):
>  <smiles-string>
COc1ccc(-c2oc3ncnc(N)c3c2-c2ccc(NC(=O)Nc3cc(C(F)(F)F)ccc3F)cc2)cc1

>  <value-unit>
%

>  <inhibition>
4.28

$$$$
>  <smiles-string>
Cc1ccc2c(-c3ccnc(Nc4ccccc4)n3)c(-c3ccc(F)cc3)nn2n1

>  <value-unit>
%

>  <inhibition>
-0.35

$$$$
>  <smiles-string>
Clc1ccc(-c2nn3ncccc3c2-c2ccnc(Nc3ccccc3)n2)cc1

>  <value-unit>
%

>  <inhibition>
-0.73

$$$$
>  <smiles-string>
CCn1c(-c2nonc2N)nc2ccccc21

>  <value-unit>
%

>  <inhibition>
-0.74

$$$$
>  <smiles-string>
CCN(CC)S(=O)(=O)c1ccc(OC)c(Nc2ncc(-c3ccccc3)o2)c1

>  <value-unit>
%

>  <inhibition>
0.24

$$$$
>  <smiles-string>
Nc1nc(-c2cccc(Cl)c2)c(-c2ccc3ncccc3n2)s1

>  <value-unit>
%

>  <inhibition>
4.45

$$$$
>  <smiles-string>
COc1cc2ncn(-c3cc(OCc4ccccc4C(F)(F)F)c(C(=O)N(C)C)s3)c2cc1OC

>  <value-unit>
%

>  <inhibition>
0.04

$$$$
>  <smiles-string>
Nc1ncc(-c2cccc(S(N)(=O)=O)c2)c2scc(-c3ccc(F)c(Cl)c3)c12

>  <value-unit>
%

>  <inhibition>
1.77

$$$$

Batch lookup, inhibition per entry.
1. CN(C)CCOc1ccc(-c2nc(-c3ccncc3)c(-c3ccc4c(c3)CC/C4=N\O)[nH]2)cc1
2. COC(=O)Nc1nc2ccc(Oc3ccc(NC(=O)Nc4cccc(Cl)c4)cc3)cc2[nH]1
3. CCc1nn2ncccc2c1-c1ccnc(NC2CC2)n1
4. CCn1cc(-c2ccnc3[nH]ccc23)c(-c2cccc(NC(=O)Nc3ccc(OCc4ccccc4)cc3)c2)n1
5. O=C(Nc1n[nH]c2cc(-c3ccc(F)cc3)ccc12)C1CC1
6. NS(=O)(=O)c1ccc(N/N=C2\C(=O)Nc3ccc4ncccc4c32)cc1

1. 1.59
2. -0.5
3. 1.12
4. -0.98
5. 5.12
6. 8.94

Batch lookup, inhibition per entry.
1. Fc1ccc(-c2cc(-c3c[nH]nc3-c3ccccn3)ccn2)cc1
2. COc1cccc(-c2c[nH]c3c(N/N=C/c4ccncc4)ncnc23)c1
3. COc1ccc2[nH]c3c4[nH]c5ccc(OC)cc5c4c4c(c3c2c1)C(=O)NC4=O
4. CC(C)(CO)CNC(=O)c1ccc2c(c1)/C(=N/Nc1ccc(S(N)(=O)=O)cc1)C(=O)N2
5. COc1cc(/C=N/Nc2ncnc3[nH]ncc23)ccc1O

1: 4.27; 2: -1.66; 3: 8.8; 4: -0.16; 5: 2.2

Form field: reported inhibition of `O=C(O[C@H]1CN[C@H](C#Cc2cc3ncnc(Nc4ccc(Cc5ccccc5)cc4)c3s2)C1)N1CCOCC1`
-0.05
